Target: Tyrosine-protein phosphatase non-receptor type 1 (Homo sapiens)
Assay: Inhibition of PTP1B (unknown origin) at 10 micromol/L by DAS-ELISA
Conditions: dose 10.0 µmol/L
assay_readout: inhibition (%)
Please state the figure in %; there is no need to write the unit.

Just so you know, measured inhibition for `CCCOC(=O)[C@]1(C)CCC[C@@]2(C)[C@@H]3CC[C@@]4(C)C[C@]3(CC[C@@H]21)C/C4=N\O` came out at 76.3

Just so you know, measured inhibition for `C[C@@]12CC[C@@H]3[C@@](CC[C@H]4[C@@]3(C)CCC[C@@]4(C)C(=O)O)(C[C@H]1O)C2` came out at 36.2

Just so you know, measured inhibition for `COC(=O)[C@]1(C)CCC[C@@]2(C)[C@@H]3CC[C@@]4(C)C[C@]3(CC[C@@H]21)CC4=O` came out at 70.1

Just so you know, measured inhibition for `C[C@@]12CC[C@@H]3[C@@](CC[C@H]4[C@@]3(C)CCC[C@@]4(C)C(=O)OCCCCN3CCCCC3)(CC1=O)C2` came out at 77.7

* * *

Field: IC50. Provide a value for each of the compounds that follow.
Biological target: Tyrosine-protein phosphatase non-receptor type 1 (Homo sapiens, UniProt P18031)
Sequence (P18031 whole entry): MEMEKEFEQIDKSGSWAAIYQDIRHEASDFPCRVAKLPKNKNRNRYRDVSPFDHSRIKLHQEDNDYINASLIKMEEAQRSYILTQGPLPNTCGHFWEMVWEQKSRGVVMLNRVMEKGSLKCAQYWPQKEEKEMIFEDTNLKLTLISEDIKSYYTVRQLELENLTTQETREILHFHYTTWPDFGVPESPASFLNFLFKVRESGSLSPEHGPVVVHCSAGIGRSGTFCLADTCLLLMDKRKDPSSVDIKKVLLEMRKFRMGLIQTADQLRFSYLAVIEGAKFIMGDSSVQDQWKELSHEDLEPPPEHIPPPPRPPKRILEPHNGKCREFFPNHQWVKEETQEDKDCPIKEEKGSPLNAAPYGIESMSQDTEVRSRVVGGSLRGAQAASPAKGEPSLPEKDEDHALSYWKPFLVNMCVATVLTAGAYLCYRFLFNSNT
Please state the figure in nM; there is no need to write the unit.

Just so you know, measured IC50 for `C[C@@]12CC[C@@H]3[C@@](CC[C@H]4[C@@]3(C)CCC[C@@]4(C)C(=O)OCCN3CCNCC3)(CC1=O)C2` came out at 800

Just so you know, measured IC50 for `C[C@@]12CC[C@@H]3[C@@](CC[C@H]4[C@@]3(C)CCC[C@@]4(C)C(=O)OCc3ccc(Br)cc3)(CC1=O)C2` came out at 330

* * *

Organism: Homo sapiens
Assay: Selectivity ratio of IC50 for TCPTP (unknown origin) to IC50 for PTP1B (unknown origin) by DAS-ELISA
assay_readout: Ratio IC50
// return just the number, without any unit appended

Just so you know, measured Ratio IC50 for `CCOC(=O)[C@]1(C)CCC[C@@]2(C)[C@@H]3CC[C@@]4(C)C[C@]3(CC[C@@H]21)[C@H](Br)C4=O` came out at 7

Just so you know, measured Ratio IC50 for `C[C@@]12CC[C@@H]3[C@@](CC[C@H]4[C@@]3(C)CCC[C@@]4(C)C(=O)OCc3ccc(Br)cc3)(CC1=O)C2` came out at 3.5

Just so you know, measured Ratio IC50 for `C[C@@]12CC[C@@H]3[C@@](CC[C@H]4[C@@]3(C)CCC[C@@]4(C)C(=O)OCc3ccccc3I)(CC1=O)C2` came out at 3.5

Just so you know, measured Ratio IC50 for `CCOC(=O)[C@]1(C)CCC[C@@]2(C)[C@@H]3CC[C@@]4(C)C[C@]3(CC[C@@H]21)C[C@H]4OC(=O)c1ccc(O)cc1` came out at 3.5
